Value source: PubChem BioAssay (NCI)

Listed molecules paired with reported TGI
- Test system: COLO 205 colon
- Test method notes: NCI tumour cell line growth inhibition, 48 h
Property measured: TGI (µM)

1) COc1ccc(C(=O)N2c3ccccc3Sc3ccccc32)c(C(F)(F)F)c1	1.48
2) CC(C)(C)NC(=O)[C@H]1C[C@H]2CCCC[C@H]2CN1C[C@@H](O)[C@H](Cc1ccccc1)NC(=O)[C@H](CC(N)=O)NC(=O)c1ccc2ccccc2n1	29.8
3) Cc1cc(N/N=C/c2nc(-c3ccc(Cl)cc3)oc2C)c2cc(Cl)ccc2n1	6.57
4) Cc1cc(C)n(CN(Cn2nc(C)cc2C)C2CCCCC2)n1	32
5) O=C1C(Br)=C(c2ccccc2)S(=O)c2ccccc21 (centres undefined)	3.95
6) C=C1C(=O)O[C@H]2C[C@@]3(C)[C@H](O)CCC(=C)[C@@H]3[C@@H](OC(C)=O)[C@H]12	7.06
7) Nc1ccc2[nH]c(C(=O)N3CC(CCl)c4c3cc(N)c3ccccc43)cc2c1 (centres undefined)	0.0223
8) Cc1ccc(NC(=O)Cn2c(Br)nc3c2c(=O)n(C)c(=O)n3C)cc1	19.3
9) CNC(=S)N/N=C/c1ccc([N+](=O)[O-])s1	8.55
10) Cc1ccc(N=Nc2c(C)c(C#N)c(=S)n(C3OC(CO)C(O)C(O)C3O)c2-c2ccccc2)cc1 (centres undefined)	57.4
11) COc1ccc(Cl)cc1Nc1nc(C(F)(F)F)ccc1C(=O)N/N=C/c1cc(OC)c(OC)c(OC)c1	8.33
12) O=Cc1ccc(-c2cccs2)s1	54.8
